molecular target: bovine intestinal alkaline phosphatase (Bos taurus (Bovine)); assay: BiALP: conversion by bovine intestinal alkaline phosphatase; assay type: in vitro ADME; conditions: 2 μM substrate, 100 ng/mL iALP, Tris pH 7.8, 37° C., 60 minutes
Sequence (P19111 20-506): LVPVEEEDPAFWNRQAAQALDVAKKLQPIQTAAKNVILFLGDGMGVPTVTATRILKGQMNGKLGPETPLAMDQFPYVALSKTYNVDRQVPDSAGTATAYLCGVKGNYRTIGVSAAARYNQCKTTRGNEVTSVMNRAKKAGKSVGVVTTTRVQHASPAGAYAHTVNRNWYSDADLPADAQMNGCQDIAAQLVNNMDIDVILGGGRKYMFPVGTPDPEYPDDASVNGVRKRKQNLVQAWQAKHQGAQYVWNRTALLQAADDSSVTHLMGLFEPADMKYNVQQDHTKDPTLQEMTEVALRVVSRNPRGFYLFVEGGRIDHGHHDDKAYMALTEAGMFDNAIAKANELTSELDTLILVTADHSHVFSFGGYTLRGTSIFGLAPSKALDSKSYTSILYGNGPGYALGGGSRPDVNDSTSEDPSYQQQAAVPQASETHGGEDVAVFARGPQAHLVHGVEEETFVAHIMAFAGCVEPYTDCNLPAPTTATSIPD
Recorded [Compound] by entry
Lab book: enter the figure in nM, no units written.

Before answering, review these 2 worked examples.
[[record]]
smilesrepr = "COC(=O)N[C@H](C(=O)N[C@@H](Cc1ccc(C#Cc2cnc(N3CC4CCC(C3)N4C3COC3)nc2)cc1)[C@H](CN(Cc1c(F)cc(-c2ccn(C(F)F)n2)cc1F)NC(=O)[C@@H](NC(=O)OC)C(C)(C)C(F)(F)F)OC(=O)CC(C)(C)c1c(CC(=O)Nc2cccc(C(=O)O)c2)cc(C)cc1OP(=O)(O)O)C(C)(C)C(F)(F)F"
measurementlabel = "[Compound]"
unittag = "nM"
number = 2276.6

[[record]]
smilesrepr = "COC(=O)N[C@H](C(=O)N[C@@H](Cc1ccc(C#Cc2cnc(N3CC4CCC(C3)N4C3COC3)nc2)cc1)[C@H](CN(Cc1c(F)cc(-c2ccn(C(F)F)n2)cc1F)NC(=O)[C@@H](NC(=O)OC)C(C)(C)C(F)(F)F)OC(=O)CC(C)(C)c1c(CC(=O)N[C@@]2(C(=O)O)CCOC2)cc(C)cc1OP(=O)(O)O)C(C)(C)C(F)(F)F"
measurementlabel = "[Compound]"
unittag = "nM"
number = 1878.7


Now consider the entry below.
Prompt: // lookup [Compound] for "COC(=O)N[C@H](C(=O)N[C@@H](Cc1ccc(C#Cc2cnc(N3CC4CCC(C3)N4C3COC3)nc2)cc1)[C@H](CN(Cc1c(F)cc(-c2ccn(C(F)F)n2)cc1F)NC(=O)[C@@H](NC(=O)OC)C(C)(C)C(F)(F)F)OC(=O)CC(C)(C)c1c(CC(=O)N2CC[C@@H](O)[C@H]2C(=O)O)cc(C)cc1OP(=O)(O)O)C(C)(C)C(F)(F)F"
Completion: 1612.8

* * *

Assay: Intestinal S9 Assay (dog GI S9)
Type: in vitro ADME
Conditions: dog, 1.0 mg/mL S9 protein, TRIS pH 7.4, read-out: Dog GI S9 T½
Method: Reagents. Stock solutions of test compounds in dimethyl sulfoxide (DMSO) having a final concentration of 10 mM were prepared and used in all experiments. Sekisui XenoTech (Kansas City, KS) provided pooled intestinal S9 fractions. All other chemicals were purchased from Sigma-Aldrich (St. Louis, MO) or VWR (West Chester, PA). […] Data Analysis. Metabolic stabilities were determined by measuring the rates of disappearance of test compound and positive control substrate. […]
measurementLabel: half-life at 2 μM

Before answering, review these 2 worked examples.
[[record]]
smilesrepr = "COC(=O)N[C@H](C(=O)N[C@@H](Cc1ccc(C#Cc2cnc(N3CC4CCC(C3)N4C3COC3)nc2)cc1)[C@H](CN(Cc1c(F)cc(-c2ccn(C(F)F)n2)cc1F)NC(=O)[C@@H](NC(=O)OC)C(C)(C)C(F)(F)F)OC(=O)CC(C)(C)c1c(CC(=O)N2C[C@H](OC)C[C@H]2C(=O)O)cc(C)cc1OP(=O)(O)O)C(C)(C)C(F)(F)F"
result = "6.67 h"

[[record]]
smilesrepr = "COC(=O)N[C@H](C(=O)N[C@@H](Cc1ccc(C#Cc2cnc(N3CC4CCC(C3)N4C3COC3)nc2)cc1)[C@H](CN(Cc1c(F)cc(-c2ccn(C(F)F)n2)cc1F)NC(=O)[C@@H](NC(=O)OC)C(C)(C)C(F)(F)F)OC(=O)CC(C)(C)c1c(CC(=O)N2C[C@H](O)C[C@H]2C(=O)O)cc(C)cc1OP(=O)(O)O)C(C)(C)C(F)(F)F"
result = "7.23 h"


Now consider the entry below.
Prompt: // lookup half-life at 2 μM for "COC(=O)N[C@H](C(=O)N[C@@H](Cc1ccc(C#Cc2cnc(N3CC4CCC(C3)N4C3COC3)nc2)cc1)[C@H](CN(Cc1c(F)cc(-c2ccn(C(F)F)n2)cc1F)NC(=O)[C@@H](NC(=O)OC)C(C)(C)C(F)(F)F)OC(=O)CC(C)(C)c1c(CC(=O)NC23CC4CC(C2)CC(C(=O)O)(C4)C3)cc(C)cc1OP(=O)(O)O)C(C)(C)C(F)(F)F"
Completion: 4.46 h
